Let's look at some molecules and their measured MIC.
test system: Mycoplasma synoviae 40A; experiment: MIC, broth-dilution microtiter test (Table X); type: cell-based; conditions: Mycoplasmopsis synoviae, read-out: MIC
# output: bare number, implied unit µg/mL

Here's what some known entries look like.
- Molecule: "CCC1OC(=O)CC(O)C(C)C(OC2OC(C)C(O)C(N(C)C)C2O)C(CCN2CCC(O)CC2)CC(C)C(=O)C=CC(C)=CC1COC1OC(C)C(O)C(OC)C1OC (centres unmarked)"
  Target System: "Mycoplasma synoviae 40A"
  MIC [µg/mL]: 6.25
- Molecule: "CCC1OC(=O)CC(O)C(C)C(OC2OC(C)C(O)C(N(C)C)C2O)C(CCN2CCCC2)CC(C)C(=O)C=CC(C)=CC1COC1OC(C)C(O)C(OC)C1OC (centres unmarked) [Compound D1, 20-DH-DO-20-(pyrrolidin-1-yl)desmycosin]"
  Target System: "Mycoplasma synoviae 40A"
  MIC [µg/mL]: 0.39

Next up:
q: Using Mycoplasma synoviae 40A as the test system, report measured MIC of CCC1OC(=O)CC(O)C(C)C(OC2OC(C)C(O)C(N(C)C)C2O)C(CCN2CCCCCCCC2)CC(C)C(=O)C=CC(C)=CC1COC1OC(C)C(O)C(OC)C1OC (centres unmarked) .
a: 0.39

###

Let's look at some compounds and their measured log10 of MIC.
System: Pasteurella multocida 60A
Experiment: MIC, broth-dilution microtiter test (Table X)
Assay type: cell-based
Conditions: Avian isolate, read-out: MIC
Source text: The MIC's in Table X were obtained using conventional broth-dilution microtiter tests.
// stored as log10 of MIC expressed in µg/mL

Here's what some known entries look like.
- Compound: "CCC1OC(=O)CC(O)C(C)C(OC2OC(C)C(O)C(N(C)C)C2O)C(CCN2CCc3ccccc3C2)CC(C)C(=O)C=CC(C)=CC1COC1OC(C)C(O)C(OC)C1OC (stereo not drawn)"
  Target System: "Pasteurella multocida 60A"
  log10 of MIC: 1.10
- Compound: "CCC1OC(=O)CC(O)C(C)C(OC2OC(C)C(O)C(N(C)C)C2O)C(CCN2CCCC(C(=O)N(CC)CC)C2)CC(C)C(=O)C=CC(C)=CC1COC1OC(C)C(O)C(OC)C1OC (stereo not drawn)"
  Target System: "Pasteurella multocida 60A"
  log10 of MIC: 1.10
- Compound: "CCC1OC(=O)CC(O)C(C)C(OC2OC(C)C(O)C(N(C)C)C2O)C(CCN2CCC3CCCCC32)CC(C)C(=O)C=CC(C)=CC1COC1OC(C)C(O)C(OC)C1OC (stereo not drawn)"
  Target System: "Pasteurella multocida 60A"
  log10 of MIC: 1.10
- Compound: "CCC1OC(=O)CC(O)C(C)C(OC2OC(C)C(O)C(N(C)C)C2O)C(CCN2CCC(c3ccccc3)CC2)CC(C)C(=O)C=CC(C)=CC1COC1OC(C)C(O)C(OC)C1OC (stereo not drawn)"
  Target System: "Pasteurella multocida 60A"
  log10 of MIC: 0.80
- Compound: "CCC1OC(=O)CC(O)C(C)C(OC2OC(C)C(O)C(N(C)C)C2O)C(CCN2CC3CCC(C3)C2)CC(C)C(=O)C=CC(C)=CC1COC1OC(C)C(O)C(OC)C1OC (stereo not drawn)"
  Target System: "Pasteurella multocida 60A"
  log10 of MIC: 1.10
- Compound: "CCC1OC(=O)CC(O)C(C)C(OC2OC(C)C(O)C(N(C)C)C2O)C(CCN2CCCC2)CC(C)C(=O)C=CC(C)=CC1COC1OC(C)C(O)C(OC)C1OC (stereo not drawn) [Compound D1, 20-DH-DO-20-(pyrrolidin-1-yl)desmycosin]"
  Target System: "Pasteurella multocida 60A"
  log10 of MIC: 0.80
- Compound: "CCC1OC(=O)CC(O)C(C)C(OC2OC(C)C(O)C(N(C)C)C2O)C(CCN2CCC(O)CC2)CC(C)C(=O)C=CC(C)=CC1COC1OC(C)C(O)C(OC)C1OC (stereo not drawn)"
  Target System: "Pasteurella multocida 60A"
  log10 of MIC: 1.70
- Compound: "CCC1OC(=O)CC(O)C(C)C(OC2OC(C)C(O)C(N(C)C)C2O)C(CCN2CC3(C)CC2CC(C)(C)C3)CC(C)C(=O)C=CC(C)=CC1COC1OC(C)C(O)C(OC)C1OC (stereo not drawn)"
  Target System: "Pasteurella multocida 60A"
  log10 of MIC: 0.49

Next up:
q: Specify log10 of MIC for CCC1OC(=O)CC(O)C(C)C(OC2OC(C)C(O)C(N(C)C)C2O)C(CCN2CCCCCCCC2)CC(C)C(=O)C=CC(C)=CC1COC1OC(C)C(O)C(OC)C1OC (stereo not drawn) and stop.
a: 0.80

###

assay: Titratable groups in 66% aqueous DMF (Tables XIV-XVI); type: physicochemical; details: 66% aqueous DMF, read-out: Titratable groups (first value)
Value Kind: pKa
The answer should be a number; do not append a unit.

- Compound: "CCC1OC(=O)CC(O)C(C)C(OC2OC(C)C(OC3CC(C)(O)C(O)C(C)O3)C(N(C)C)C2O)C(CCN2CCCCCC2)CC(C)C(=O)C=CC(C)=CC1COC1OC(C)C(O)C(O)C1OC (centres unmarked)"
  pKa: 6.91

Next up:
q: Specify pKa for CCC1OC(=O)CC(O)C(C)C(OC2OC(C)C(OC3CC(C)(O)C(O)C(C)O3)C(N(C)C)C2O)C(CCN2CCCCCCC2)CC(C)C(=O)C=CC(C)=CC1COC1OC(C)C(O)C(O)C1OC (centres unmarked) and stop.
a: 6.9

###

tested on: Staphyloccus aureus X1.1; test: MIC, standard agar-dilution assay (Table IX); assay type: cell-based, Staphylococcus aureus; settings: Staphylococcus aureus, read-out: MIC
Value Kind: MIC (µg/mL)
# output: bare number, implied unit µg/mL

Here's what some known entries look like.
- Molecule: "CCC1OC(=O)CC(O)C(C)C(OC2OC(C)C(OC3CC(C)(O)C(O)C(C)O3)C(N(C)C)C2O)C(CCN2CCCCCC2)CC(C)C(=O)C=CC(C)=CC1COC1OC(C)C(O)C(O)C1OC (centres unmarked) [Compound M3]"
  Measure Unit: "µg/mL"
  Recorded Number: 4
- Molecule: "CCC1OC(=O)CC(O)C(C)C(OC2OC(C)C(O)C(N(C)C)C2O)C(CCN2CCCC23CCCCC3)CC(C)C(=O)C=CC(C)=CC1COC1OC(C)C(O)C(OC)C1OC (centres unmarked) [Compound D19]"
  Measure Unit: "µg/mL"
  Recorded Number: 1
- Molecule: "CCC1OC(=O)CC(O)C(C)C(OC2OC(C)C(O)C(N(C)C)C2O)C(CCN2CCC(N3CCCCC3)CC2)CC(C)C(=O)C=CC(C)=CC1COC1OC(C)C(O)C(OC)C1OC (centres unmarked) [Compound D13]"
  Measure Unit: "µg/mL"
  Recorded Number: 0.5
- Molecule: "CCC1OC(=O)CC(O)C(C)C(OC2OC(C)C(O)C(N(C)C)C2O)C(CCN2CC=CCC2)CC(C)C(=O)C=CC(C)=CC1COC1OC(C)C(O)C(OC)C1OC (centres unmarked) [Compound D22]"
  Measure Unit: "µg/mL"
  Recorded Number: 1

Next up:
q: Specify MIC for CCC1OC(=O)CC(O)C(C)C(OC2OC(C)C(O)C(N(C)C)C2O)C(CCN2CCCCCCCCCCCC2)CC(C)C(=O)C=CC(C)=CC1COC1OC(C)C(O)C(OC)C1OC (centres unmarked) [Compound D10] and stop.
a: 0.25

###

Let's look at some compounds and their measured MIC.
system: Mycoplasma synoviae 40A; test: MIC, broth-dilution microtiter test (Table X); format: cell-based; conditions: Mycoplasmopsis synoviae, read-out: MIC
# output: bare number, implied unit µg/mL

Here's what some known entries look like.
- Compound: "CCC1OC(=O)CC(O)C(C)C(OC2OC(C)C(OC3CC(C)(O)C(O)C(C)O3)C(N(C)C)C2O)C(CCN2CCCCCCC2)CC(C)C(=O)C=CC(C)=CC1COC1OC(C)C(O)C(O)C1OC (centres unmarked) [Compound M4]"
  Recorded Number: 6.25
- Compound: "CCC1OC(=O)CC(O)C(C)C(OC2OC(C)CC(N(C)C)C2O)C(CCN2CCCCCC2)CC(C)C(=O)C=CC(C)=CC1COC1OC(C)C(O)C(OC)C1OC (centres unmarked) [Compound D5a]"
  Recorded Number: 0.195

Next up:
q: Specify MIC for CCC1OC(=O)CC(O)C(C)C(OC2OC(C)C(OC3CC(C)(O)C(O)C(C)O3)C(N(C)C)C2O)C(CCN2CCCCCC2)CC(C)C(=O)C=CC(C)=CC1COC1OC(C)C(O)C(O)C1OC (centres unmarked) [Compound M3] and stop.
a: 25

###

system: Escherichia coli TEM; test: MIC, standard agar-dilution assay (Table IX); assay type: cell-based; settings: read-out: MIC
Value Kind: MIC (µg/mL)
# output: bare number, implied unit µg/mL

- Molecule: "CCC1OC(=O)CC(O)C(C)C(OC2OC(C)C(O)C(N(C)C)C2O)C(CCN2CCCC(C(=O)N(CC)CC)C2)CC(C)C(=O)C=CC(C)=CC1COC1OC(C)C(O)C(OC)C1OC (stereo not drawn)"
  MIC [µg/mL]: 64

q: Specify MIC for CCC1OC(=O)CC(O)C(C)C(OC2OC(C)C(O)C(N(C)C)C2O)C(CCN2CCC(c3ccccc3)CC2)CC(C)C(=O)C=CC(C)=CC1COC1OC(C)C(O)C(OC)C1OC (stereo not drawn) and stop.
a: 32

q: Specify MIC for CCC1OC(=O)CC(O)C(C)C(OC2OC(C)CC(N(C)C)C2O)C(CCN2CCCCCC2)CC(C)C(=O)C=CC(C)=CC1COC1OC(C)C(O)C(OC)C1OC (stereo not drawn) and stop.
a: 8
